ASSAYED SYSTEM: human full-length recombinant HPK1 (Homo sapiens (Human))
Sequence (Q92918 whole entry): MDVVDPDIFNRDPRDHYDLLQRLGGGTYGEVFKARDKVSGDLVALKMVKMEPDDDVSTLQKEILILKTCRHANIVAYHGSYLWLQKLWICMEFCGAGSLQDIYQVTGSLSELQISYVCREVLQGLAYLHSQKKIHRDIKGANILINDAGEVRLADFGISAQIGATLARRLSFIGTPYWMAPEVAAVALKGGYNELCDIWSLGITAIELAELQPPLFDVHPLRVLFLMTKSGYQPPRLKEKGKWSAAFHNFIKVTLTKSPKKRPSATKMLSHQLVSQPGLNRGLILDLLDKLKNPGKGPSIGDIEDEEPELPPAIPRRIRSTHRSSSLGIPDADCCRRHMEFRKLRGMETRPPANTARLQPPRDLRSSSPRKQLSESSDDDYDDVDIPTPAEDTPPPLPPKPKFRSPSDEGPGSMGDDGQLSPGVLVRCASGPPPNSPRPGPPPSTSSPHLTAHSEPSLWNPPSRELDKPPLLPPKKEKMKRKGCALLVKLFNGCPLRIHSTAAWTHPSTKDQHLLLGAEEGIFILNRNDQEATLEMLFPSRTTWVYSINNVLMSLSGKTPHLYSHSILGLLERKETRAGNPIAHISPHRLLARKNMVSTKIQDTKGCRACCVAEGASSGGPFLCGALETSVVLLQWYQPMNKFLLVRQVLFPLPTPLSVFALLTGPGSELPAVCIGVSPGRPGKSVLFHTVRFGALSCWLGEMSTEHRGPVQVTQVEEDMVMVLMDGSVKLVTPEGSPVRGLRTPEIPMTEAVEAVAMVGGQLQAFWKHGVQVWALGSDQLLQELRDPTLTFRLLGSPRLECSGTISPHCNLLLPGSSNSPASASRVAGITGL
RUN DESCRIPTION: HPK1 biochemical enzyme assay, microfluidic mobility shift assay (MSA)
CONDITION DESCRIPTION: mobility shift assay; 75 μM ATP; Morrison equation, tight-binding competitive inhibition; read-out: HPK1 Enzyme Assay_Ki
Where a name gives a salt, the structure may show the parent alone.
PROPERTY MEASURED: Ki (nM)

Solved entries (count: 5):
INSERT INTO assay_data (molecule, value_reported) VALUES
  ('C[C@H]1COC(=O)N1c1cccc(N2Cc3c(cc(C(C)(C)C)nc3CN)C2=O)n1', 5.1),
  ('CNCc1nc(C2(C)CC2)cc2c1CN(c1cccc(-c3nncn3C3CCC3)n1)C2=O', 0.35),
  ('CNCc1nc(C2(C)CC2)cc2c1CN(c1cccc(-c3nncn3C(C)C)n1)C2=O', 1.46),
  ('CCCn1cnnc1-c1cccc(N2Cc3c(cc(N(C)CC)nc3CN)C2=O)n1 [Example 56, hydrochloride]', 0.34),
  ('CNCc1nc(N)cc2c1CN(c1cccc(-c3nncn3C(C)C)n1)C2=O', 0.14);

a = CC[C@H](CC(F)(F)F)n1cnnc1-c1cccc(N2Cc3c(cc(N(C)C)nc3CNC)C2=O)n1 (single isomer, unassigned)
b = CNCc1nc(N(C)C)cc2c1CN(c1cccc(-c3nncn3C(C)C)n1)C2=O
*Q* // select label with min value of measured Ki from [ a , b ] To answer, give the label that identifies your chosen option.
*A* b

1 = CCCn1cnnc1-c1cccc(N2Cc3c(cc(N(C)CC)nc3CNC)C2=O)n1
2 = CC(C)c1cnnn1-c1cccc(N2Cc3c(cc(N(C)C)nc3CN)C2=O)n1
*Q* Of 1 and 2 , which one carries the higher reported Ki? To answer, give the label that identifies your chosen option.
*A* 1

I = CNCc1nc(N(C)C)cc2c1CN(c1cccc(-c3nncn3CC3CC3)n1)C2=O
II = CNCc1nc(N2[C@H](C)CC[C@H]2C)cc2c1CN(c1cccc(-c3nncn3C(C)C)n1)C2=O
III = CNCc1nc(C2(C)CC2)cc2c1CN(c1cccc(N3C(=O)OC[C@@H]3C)n1)C2=O
IV = CCN(C)c1cc2c(c(CN)n1)CN(c1cccc(-c3nncn3CC)n1)C2=O
*Q* Ascending by Ki, please: list the molecules accordingly. // respond by listing labels in the order requested
*A* IV, II, I, III
(IV: 0.17 nM, II: 0.25 nM, I: 0.62 nM, III: 1.46 nM)

P = CNCc1nc(N2[C@H](C)C[C@H]2C)cc2c1CN(c1cccc(-c3nncn3C(C)C)n1)C2=O [Example 3]
Q = CNCc1nc(C2CC2)cc2c1CN(c1cccc(-c3nncn3C(C)C)n1)C2=O
R = CNCc1nc(C(C)C)cc2c1CN(c1cccc(-c3nncn3C(C)C)n1)C2=O
S = CNCc1nc(N(C)C(C)C)cc2c1CN(c1cccc(-c3nncn3C(C)C)n1)C2=O
T = CNCc1nccc2c1CN(c1cccc(-c3nncn3C(C)C)n1)C2=O
*Q* Task field, ranking: reported Ki, descending order. // respond by listing labels in the order requested
*A* T, R, P, Q, S
(T: 140 nM, R: 2.1 nM, P: 0.77 nM, Q: 0.39 nM, S: 0.13 nM)

A = CN(C)c1cc2c(c(CN)n1)CN(c1cccc(-c3nncn3CC3CC3)n1)C2=O
B = C[C@@H]1C[C@@H](C)N1c1cc2c(c(CN)n1)CN(c1cccc(N3C(=O)OC[C@@H]3C)n1)C2=O
C = CC(C)c1[nH]ncc1-c1cccc(N2Cc3c(cc(N(C)C)nc3CN)C2=O)n1
D = CNCc1nc(N(C)C)cc2c1CN(c1cccc(N3C(=O)OC[C@@H]3CF)n1)C2=O
*Q* Task field, ranking: reported Ki, descending order. // respond by listing labels in the order requested
*A* B, A, D, C
(B: 1.92 nM, A: 0.56 nM, D: 0.17 nM, C: 0.09 nM)

I = CNCc1nc(C(C)(C)C)cc2c1CN(c1cccc(-c3nncn3C(C)C)n1)C2=O
II = CC(C)n1cnnc1-c1cccc(N2Cc3c(cc(C4CC4)nc3CN)C2=O)n1
*Q* // select label with min value of measured Ki from [ I , II ] To answer, give the label that identifies your chosen option.
*A* II
(II: 0.66 nM, I: 3.2 nM)

A = CNCc1nc(N2[C@H](C)CC[C@@H]2C)cc2c1CN(c1cccc(-c3nncn3C(C)C)n1)C2=O
B = CNCc1nc(N2[C@H](C)C[C@H]2C)cc2c1CN(c1cccc(-c3nncn3C(C)C)n1)C2=O [Example 28]
*Q* Of A and B , which one carries the higher reported Ki? To answer, give the label that identifies your chosen option.
*A* B
